Entries and their measured normalized growth follow.
experiment: chemical genetic growth profiling, strain panel (AID 1159580);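 further: tested at 20 µM; growth read once vehicle control cultures reached saturation at 30 °C; 1 = growth at the plate median or of vehicle wells; lower values mean less growth of the strain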; conditions: S. cerevisiae deletion strains, growth OD, locus YDR502C, strain sam2, hits give low values
In all, about 5,500 compounds went through this assay and about 2,000 (36%) were called active. Roughly 18% stayed inconclusive and do not appear here. Some of the results follow.
Write the number on its own, no unit after it.

COc1ccc(C(=O)N2CCCC2=O)cc1
0.995
Nc1cc(-c2ccncc2)c[nH]c1=O
0.926

Memo: Nc1ccncc1 , reported normalized growth: 0.968

Memo: COc1ccc(C(=O)CC(=O)c2ccc(C(C)(C)C)cc2)cc1 , reported normalized growth: 1.01
